System: Escherichia coli TOP10;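 also: peptides expressed intracellularly from a pBAD plasmid library in pooled LB shake-flask culture, induced with 0.3% L-arabinose, DNA abundance read by NGS, three biological replicates, DESeq2 with apeglm shrinkage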
Assay: shrunken log2 fold change of peptide-encoding DNA abundance (4.5 h post-induction vs induction); higher = less antimicrobial activity (less host growth inhibition)
Details: time post-induction: 4.5 h; library: site-saturation at positions 5, 18, 19, 20
Each entry below carries its recorded shrunken log2 fold change.
readout name: shrunken log2 fold change

>>> print(df.to_string())
           monomer_sequence       target_under_test  test_value
 0  RRIRDRPPRLPRPRPRPTTWPRP  Escherichia coli TOP10       0.467
 1  RRIRGRPPRLPRPRPRPHIVPRP  Escherichia coli TOP10       0.106
 2  RRIRNRPPRLPRPRPRPKVQPRP  Escherichia coli TOP10       0.341
 3  RRIRYRPPRLPRPRPRPYIKPRP  Escherichia coli TOP10        -1.3
 4  RRIRWRPPRLPRPRPRPEDHPRP  Escherichia coli TOP10       0.304
 5  RRIRCRPPRLPRPRPRPLLNPRP  Escherichia coli TOP10       -0.39
 6  RRIRSRPPRLPRPRPRPKTCPRP  Escherichia coli TOP10     -0.0741
 7  RRIRMRPPRLPRPRPRPVLTPRP  Escherichia coli TOP10        0.27
 8  RRIRARPPRLPRPRPRPRNIPRP  Escherichia coli TOP10       0.157
 9  RRIRRRPPRLPRPRPRPQWMPRP  Escherichia coli TOP10       0.139
10  RRIRGRPPRLPRPRPRPYYYPRP  Escherichia coli TOP10      -0.824
11  RRIRHRPPRLPRPRPRPSYIPRP  Escherichia coli TOP10       -1.77
12  RRIRDRPPRLPRPRPRPCMAPRP  Escherichia coli TOP10       0.203
13  RRIRRRPPRLPRPRPRPRSEPRP  Escherichia coli TOP10       0.342
14  RRIRGRPPRLPRPRPRPGGTPRP  Escherichia coli TOP10        1.09
15  RRIRMRPPRLPRPRPRPFNWPRP  Escherichia coli TOP10     -0.0926
16  RRIRRRPPRLPRPRPRPEVSPRP  Escherichia coli TOP10       0.214
17  RRIRWRPPRLPRPRPRPKPYPRP  Escherichia coli TOP10        3.05
18  RRIRSRPPRLPRPRPRPTGIPRP  Escherichia coli TOP10     -0.0906
19  RRIRMRPPRLPRPRPRPSFQPRP  Escherichia coli TOP10      -0.283
20  RRIRTRPPRLPRPRPRPWQDPRP  Escherichia coli TOP10      -0.326
21  RRIRRRPPRLPRPRPRPEDIPRP  Escherichia coli TOP10        0.06
22  RRIRFRPPRLPRPRPRPIHHPRP  Escherichia coli TOP10     -0.0432
23  RRIRPRPPRLPRPRPRPSAKPRP  Escherichia coli TOP10       0.528
24  RRIRERPPRLPRPRPRPETRPRP  Escherichia coli TOP10     -0.0227
25  RRIRLRPPRLPRPRPRPWKLPRP  Escherichia coli TOP10    -0.00968
26  RRIRYRPPRLPRPRPRPLRDPRP  Escherichia coli TOP10      0.0739
27  RRIRFRPPRLPRPRPRPGATPRP  Escherichia coli TOP10       0.357
28  RRIRPRPPRLPRPRPRPQVCPRP  Escherichia coli TOP10       0.129
29  RRIRVRPPRLPRPRPRPTIKPRP  Escherichia coli TOP10      -0.226
30  RRIRIRPPRLPRPRPRPADWPRP  Escherichia coli TOP10       0.218
31  RRIRVRPPRLPRPRPRPFNPPRP  Escherichia coli TOP10      -0.484
32  RRIRFRPPRLPRPRPRPMTRPRP  Escherichia coli TOP10      -0.173
33  RRIRGRPPRLPRPRPRPFVTPRP  Escherichia coli TOP10      0.0292
34  RRIRCRPPRLPRPRPRPKARPRP  Escherichia coli TOP10       0.315
35  RRIRMRPPRLPRPRPRPMPDPRP  Escherichia coli TOP10       0.716
36  RRIRPRPPRLPRPRPRPLWEPRP  Escherichia coli TOP10      0.0604
37  RRIRRRPPRLPRPRPRPDIYPRP  Escherichia coli TOP10      0.0543
38  RRIRDRPPRLPRPRPRPWKNPRP  Escherichia coli TOP10     -0.0182
39  RRIRWRPPRLPRPRPRPEEQPRP  Escherichia coli TOP10       0.149
40  RRIRIRPPRLPRPRPRPARSPRP  Escherichia coli TOP10      0.0389
41  RRIRWRPPRLPRPRPRPTCHPRP  Escherichia coli TOP10       0.228
42  RRIRKRPPRLPRPRPRPAAIPRP  Escherichia coli TOP10       0.255
43  RRIRHRPPRLPRPRPRPGEMPRP  Escherichia coli TOP10       0.257
44  RRIRPRPPRLPRPRPRPKWRPRP  Escherichia coli TOP10      0.0676
45  RRIRVRPPRLPRPRPRPFRAPRP  Escherichia coli TOP10     -0.0855
46  RRIRMRPPRLPRPRPRPDKRPRP  Escherichia coli TOP10       0.076
47  RRIRLRPPRLPRPRPRPIHWPRP  Escherichia coli TOP10       0.143
48  RRIRNRPPRLPRPRPRPKPVPRP  Escherichia coli TOP10        0.24
49  RRIRCRPPRLPRPRPRPYAGPRP  Escherichia coli TOP10      -0.513
50  RRIRKRPPRLPRPRPRPMLEPRP  Escherichia coli TOP10       0.621
51  RRIRMRPPRLPRPRPRPPDWPRP  Escherichia coli TOP10         1.7
52  RRIRFRPPRLPRPRPRPEGVPRP  Escherichia coli TOP10      -0.175
53  RRIRSRPPRLPRPRPRPMKHPRP  Escherichia coli TOP10      -0.212
54  RRIRWRPPRLPRPRPRPITPPRP  Escherichia coli TOP10       0.145
55  RRIRPRPPRLPRPRPRPKGYPRP  Escherichia coli TOP10       -0.13
56  RRIRNRPPRLPRPRPRPTWMPRP  Escherichia coli TOP10      -0.155
57  RRIRHRPPRLPRPRPRPQFDPRP  Escherichia coli TOP10      0.0132
58  RRIRARPPRLPRPRPRPVNVPRP  Escherichia coli TOP10      -0.169
59  RRIRIRPPRLPRPRPRPSGFPRP  Escherichia coli TOP10      -0.175
60  RRIRSRPPRLPRPRPRPCTHPRP  Escherichia coli TOP10    -0.00194
61  RRIRRRPPRLPRPRPRPHHGPRP  Escherichia coli TOP10      -0.249
62  RRIRGRPPRLPRPRPRPQCIPRP  Escherichia coli TOP10       0.438
